kinact/KI listing for selected compounds.
TGT: human leukocyte elastase (HLE) (Homo sapiens, UniProt P08246)
TEST_DESCRIPTION: Inactivation of human leukocyte elastase: kon measured, Ki* = koff/kon calculated
Format: biochemical
EXPERIMENTAL_SETUP: Elastase; rate of inactivation kon = kobs/[I]; value is kon x 10^-3; read-out: 10^-3 x kon
Your answer is read as M⁻¹ s⁻¹, so omit the unit and give the number.

CC(=O)OCN1C(=O)c2c(C)cccc2S1(=O)=O [Example 1, 2-acetoxymethyl-4-methylsaccharin]	630

Exam item: Fill blank: measured kinact/KI of the compound CSc1nn(CN2C(=O)c3ccccc3S2(=O)=O)c(=S)s1 [Example 30AD] is ____.
Marked response: 7000

Exam item: Fill blank: measured kinact/KI of the compound O=C1c2c(Br)cccc2S(=O)(=O)N1CCl [Example 21, 2-chloromethyl-4-bromosaccharin] is ____.
Marked response: 950000

Exam item: Fill blank: measured kinact/KI of the compound CC(C)c1cccc2c1C(=O)N(CSc1nnnn1CCN1CCOCC1)S2(=O)=O [Example 30BI] is ____.
Marked response: 39000

Exam item: Fill blank: measured kinact/KI of the compound CCOc1cccc2c1C(=O)N(CCl)S2(=O)=O [Example 22H] is ____.
Marked response: 25000

Exam item: Fill blank: measured kinact/KI of the compound O=C1c2ccccc2S(=O)(=O)N1CSc1nc2ccc([N+](=O)[O-])cc2s1 [Example 30BD] is ____.
Marked response: 11700

Exam item: Fill blank: measured kinact/KI of the compound CC(C)c1cccc2c1C(=O)N(CSc1nnnn1C)S2(=O)=O [Example 30AN] is ____.
Marked response: 19000

Exam item: Fill blank: measured kinact/KI of the compound CC(C)c1cccc2c1C(=O)N(Cn1nnn(-c3ccccc3)c1=S)S2(=O)=O [Example 30AJ] is ____.
Marked response: 1800

Exam item: Fill blank: measured kinact/KI of the compound CC(C)Oc1cccc2c1C(=O)N(CSc1nnnn1-c1ccccc1)S2(=O)=O [Example 30AU] is ____.
Marked response: 8900

Exam item: Fill blank: measured kinact/KI of the compound O=C1c2ccccc2S(=O)(=O)N1C[S+]([O-])c1ncccn1 (centres unmarked) [Example 13, 2-(2-pyrimidylsulfinylmethyl)saccharin] is ____.
Marked response: 300

Exam item: Fill blank: measured kinact/KI of the compound O=C1c2c(Cl)cccc2S(=O)(=O)N1CSc1nnnn1-c1ccccc1 [Example 4] is ____.
Marked response: 20000

Exam item: Fill blank: measured kinact/KI of the compound Nc1cccc(-n2nnnc2SCN2C(=O)c3ccccc3S2(=O)=O)c1 [Example 30C] is ____.
Marked response: 2500

Exam item: Fill blank: measured kinact/KI of the compound Cc1nnc(SCN2C(=O)c3c(C(C)C)cccc3S2(=O)=O)s1 [Example 30AM] is ____.
Marked response: 12300

---

TGT: human leukocyte elastase (HLE) (Homo sapiens, UniProt P08246)
Sequence (P08246 30-267): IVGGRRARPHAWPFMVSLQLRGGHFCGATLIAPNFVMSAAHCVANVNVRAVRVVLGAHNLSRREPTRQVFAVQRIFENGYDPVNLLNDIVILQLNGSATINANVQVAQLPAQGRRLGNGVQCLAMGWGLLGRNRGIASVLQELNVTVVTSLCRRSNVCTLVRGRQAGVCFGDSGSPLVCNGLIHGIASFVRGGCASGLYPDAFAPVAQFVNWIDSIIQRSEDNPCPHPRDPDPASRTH
TEST_DESCRIPTION: Inactivation of human leukocyte elastase: kon measured, Ki* = koff/kon calculated
Format: biochemical
EXPERIMENTAL_SETUP: Elastase; rate of inactivation kon = kobs/[I]; value is kon x 10^-3; read-out: 10^-3 x kon
kinact/KI listing for selected compounds.
The reply must contain the numeric value and, after it, the unit.

Take a look at these entries with their results.
O=C1c2ccccc2S(=O)(=O)N1CSc1nnc2ccccn12 [Example 30N]	250 M⁻¹ s⁻¹
O=C1c2ccccc2S(=O)(=O)N1CS(=O)(=O)c1ccccc1 [Example 12, 2-(phenylsulfonylmethyl)saccharin]	970 M⁻¹ s⁻¹
COC(=O)c1cccc2c1C(=O)N(CCl)S2(=O)=O [Example 22G]	3000 M⁻¹ s⁻¹
Cc1ccc(C)c2c1C(=O)N(CCl)S2(=O)=O [Example 29, 2-chloromethyl-4,7-dimethylsaccharin]	1100 M⁻¹ s⁻¹
Cn1cnnc1SCN1C(=O)c2ccccc2S1(=O)=O [Example 30AC]	190 M⁻¹ s⁻¹
O=C1c2ccccc2S(=O)(=O)N1CS(=O)(=O)c1ncccn1 [Example 14, 2-(2-pyrimidylsulfonylmethyl)saccharin]	600 M⁻¹ s⁻¹
COC(=O)C(Sc1nnnn1-c1ccccc1)N1C(=O)c2ccccc2S1(=O)=O (stereo not drawn) [Example 17]	2900 M⁻¹ s⁻¹
CC(C)c1cccc2c1C(=O)N(Cn1nnn(-c3cccnc3)c1=S)S2(=O)=O [Example 30Z]	70000 M⁻¹ s⁻¹

Exam item: Fill blank: measured kinact/KI of the compound CC(C)c1cccc2c1C(=O)N(CCl)S2(=O)=O [Example 22E] is ____.
Marked response: 4700 M⁻¹ s⁻¹

Exam item: Fill blank: measured kinact/KI of the compound O=C1c2ccccc2S(=O)(=O)N1COc1ccc([N+](=O)[O-])cc1 [Example 15, 2-(4-nitrophenoxymethyl)saccharin] is ____.
Marked response: 3200 M⁻¹ s⁻¹

Exam item: Fill blank: measured kinact/KI of the compound O=C1c2cccc(Cl)c2S(=O)(=O)N1CCl [Example 22D] is ____.
Marked response: 75800 M⁻¹ s⁻¹

Exam item: Fill blank: measured kinact/KI of the compound O=C(O)c1cccc(-n2nnn(CN3C(=O)c4ccccc4S3(=O)=O)c2=S)c1 [Example 30-O] is ____.
Marked response: 30 M⁻¹ s⁻¹

---

TGT: human leukocyte elastase (HLE) (Homo sapiens)
TEST_DESCRIPTION: Inactivation of human leukocyte elastase: kon measured, Ki* = koff/kon calculated
Format: biochemical
EXPERIMENTAL_SETUP: Elastase; rate of inactivation kon = kobs/[I]; value is kon x 10^-3; read-out: 10^-3 x kon
log10 kinact/KI listing for selected compounds.
The common logarithm of kinact/KI in M⁻¹ s⁻¹ is what is listed.

CC(=O)Nc1cccc(-n2nnnc2SCN2C(=O)c3ccccc3S2(=O)=O)c1	3.74

Exam item: Notebook entry, human leukocyte elastase (HLE) (Homo sapiens) assay: log10 kinact/KI of Cc1nnc(SCN2C(=O)c3ccccc3S2(=O)=O)s1 [Example 30AB] = ?
Marked response: 3.45

Exam item: Notebook entry, human leukocyte elastase (HLE) (Homo sapiens) assay: log10 kinact/KI of CCOC(=O)Cn1nnnc1SCN1C(=O)c2ccccc2S1(=O)=O [Example 30AP] = ?
Marked response: 3.11

Exam item: Notebook entry, human leukocyte elastase (HLE) (Homo sapiens) assay: log10 kinact/KI of O=C(O)c1ccc(-n2nnnc2SCN2C(=O)c3ccccc3S2(=O)=O)cc1 [Example 30D] = ?
Marked response: 2.90

Exam item: Notebook entry, human leukocyte elastase (HLE) (Homo sapiens) assay: log10 kinact/KI of O=C1c2ccccc2S(=O)(=O)N1CSc1nnc(SCCN2CCCCC2)s1 [Example 33C] = ?
Marked response: 2.30

---

pKi listing for selected compounds.
Protein target, amino acids: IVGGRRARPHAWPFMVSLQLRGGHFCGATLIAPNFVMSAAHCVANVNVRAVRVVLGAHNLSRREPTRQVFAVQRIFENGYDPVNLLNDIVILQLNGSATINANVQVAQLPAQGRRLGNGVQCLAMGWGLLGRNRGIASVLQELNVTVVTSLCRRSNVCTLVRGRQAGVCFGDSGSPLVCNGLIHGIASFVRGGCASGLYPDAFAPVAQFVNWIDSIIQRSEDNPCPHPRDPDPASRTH
The value called pKi is obtained by taking minus log10 of the concentration in mol/L.

O=C1c2c(-c3ccccc3)cccc2S(=O)(=O)N1CSc1nnnn1-c1ccccc1 [Example 30BC]	7.10
CCOc1cccc2c1C(=O)N(CSc1nnnn1-c1ccccc1)S2(=O)=O [Example 30AT]	8.52
CC(C)Oc1cccc2c1C(=O)N(CSc1nnnn1-c1ccccc1)S2(=O)=O [Example 30AU]	7.76
Cn1cnnc1SCN1C(=O)c2ccccc2S1(=O)=O [Example 30AC]	6.61
O=C1c2ccccc2S(=O)(=O)N1CSc1nnnn1C1CCCCC1	7.49

Next up:
Exam item: Fill blank: measured pKi of the compound Cn1nnnc1SCN1C(=O)c2ccccc2S1(=O)=O is ____.
Marked response: 7.09

---

TGT: α-Chymotrypsin (Bos taurus, UniProt P00766)
TEST_DESCRIPTION: Inactivation of α-chymotrypsin: kon measured, Ki* = koff/kon calculated
Format: biochemical
EXPERIMENTAL_SETUP: rate of inactivation kon = kobs/[I], value is kon x 10^-3
kinact/KI listing for selected compounds.
Your answer is read as M⁻¹ s⁻¹, so omit the unit and give the number.

Take a look at these entries with their results.
O=C1c2c(-c3ccccc3)cccc2S(=O)(=O)N1CCl	210
O=C1c2c(Cl)cccc2S(=O)(=O)N1Cn1nnn(-c2ccccc2)c1=S	6000
CC(=O)OCN1C(=O)c2c(C)cccc2S1(=O)=O	1200
O=C1c2ccccc2S(=O)(=O)N1CS(=O)(=O)c1ccccc1	1100
O=C1c2ccccc2S(=O)(=O)N1CS(=O)(=O)c1ncccn1	2800
CC(=O)Nc1cccc(-n2nnnc2SCN2C(=O)c3ccccc3S2(=O)=O)c1	3700
Cn1nnnc1SCN1C(=O)c2ccccc2S1(=O)=O	2100

Exam item: Fill blank: measured kinact/KI of the compound O=C1c2ccccc2S(=O)(=O)N1C[S+]([O-])c1ncccn1 (centres unmarked) is ____.
Marked response: 2600
